Molecular target: human GLP-1 receptor (human, UniProt P43220 24-463)
Experiment: cell-based or functional assay
*1 amine or outer side, *2 acyl side, *3 side chain or, on linkers, in order; H or OH if unused. Where no end group is shown, it is not given here. Side-chain parts run from the residue outwards. [ ]: non-standard residue; d: D form. The star is where a group is joined. C18 diacid = O=C(O)CCCCCCCCCCCCCCCCC(=O)*; γGlu = O=C(O)[C@H](CCC(=O)[*:2])N[*:1]; dtOrn = not defined here; Aib = CC(C)(N)C(=O)O
Mark Y for EC50, CreLuc reporter, 100% hP under 10 nM, N if at or over.

Worked examples follow.
binder	class
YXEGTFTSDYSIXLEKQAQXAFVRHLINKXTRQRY (Aib at 2, 13, 20, 30; Lys29 epsilon-amino: C20DA-gGlu-gGlu-gGlu-gGlu-gGlu-AHX; C-terminal amide) [Compound 167]	N
YXEGTFTSDYSIXLEEQAQXAFVRHLINKXTRQRY (Aib at 2, 20, 30; aMeL at 13; Lys29 epsilon-amino: C20DA-gGlu-gGlu-gGlu-gGlu-gGlu-gGlu-eLys; C-terminal amide) [Compound 89]	Y
YXEGTFTSDYSAXLEKQAQXAFVRHLINKXTRQRY (Aib at 2, 13, 20, 30; Lys29 epsilon-amino: C18DA-gGlu-gGlu-gGlu-gGlu-gGlu-gGlu-eLys; C-terminal amide) [Compound 156]	N
YXEGTFTSDYSIXLEKQRQXAFVRHLINKXTRQRY (Aib at 2, 13, 20, 30; Lys29 epsilon-amino: C18DA-gGlu-gGlu-gGlu-gGlu-gGlu-gGlu-eLys; C-terminal amide) [Compound 91]	N

Note: attention shifts to another entry.
Q) Check if EC50, CreLuc reporter, 100% hP falls below 10 nM for Y[Aib]EGTFTSDYSI[Aib]LEKQAQ[Aib]AFVRHLINK([dtOrn-γGlu-γGlu-γGlu-γGlu-γGlu-γGlu-C18 diacid])[Aib]TRQRY-NH2 (reading uncertain) [Compound 87] .
A) Y
